molecular target: PTB1 (human, UniProt P26599-1 1-531); test: filter binding
experimentalEndpoint: pKd
pKd is defined as minus the log10 of a concentration measured in mol/L.

# input Look up pKd for this binder: GGAGACUUGGUGGCUCCAUCUUAGCCCUA (structured_RNA) [HCV X SL3]
# output 6.39
